ASSAY_SYSTEM: T1, Human SIRPαV2 (CAA71403.1), Extracellular Domain + His-Tag (human, UniProt P78324 31-373)
T1 construct: also called huSIRPαV2; hSIRPαV2; not shown: His-Tag
T1 sequence (P78324 other isoform, or with tags, fused parts or gaps): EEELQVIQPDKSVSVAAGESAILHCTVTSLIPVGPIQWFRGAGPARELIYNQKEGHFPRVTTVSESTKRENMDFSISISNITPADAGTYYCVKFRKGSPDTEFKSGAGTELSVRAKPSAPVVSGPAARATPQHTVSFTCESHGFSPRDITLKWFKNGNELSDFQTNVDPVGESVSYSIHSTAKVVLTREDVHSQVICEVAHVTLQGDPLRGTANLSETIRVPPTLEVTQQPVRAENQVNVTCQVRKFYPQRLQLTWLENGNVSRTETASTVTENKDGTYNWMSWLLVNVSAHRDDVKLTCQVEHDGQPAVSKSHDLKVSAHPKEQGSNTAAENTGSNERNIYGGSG
METHOD_DESCRIPTION: SPR, antibody captured on Protein A/G, ECD-His analyte, 1:1 fit
Protocol: The binding kinetics of anti-SIRPα antibodies to various SIRPα analytes are determined by surface plasmon resonance (SPR) using a Biacore 8K+(Cytiva). 1×HBS-EP+(Cytiva) is used as running buffer and for all the dilutions unless stated otherwise. […]
Provide the reported Kd of each item.
Give bare numbers, in nM.

Antibody E3 (antibody, human IgG1, kappa, L234A L235A, V domains shown) VH: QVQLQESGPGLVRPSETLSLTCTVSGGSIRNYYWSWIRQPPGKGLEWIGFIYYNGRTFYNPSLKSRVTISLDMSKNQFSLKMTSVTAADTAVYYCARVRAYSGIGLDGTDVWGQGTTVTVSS VL: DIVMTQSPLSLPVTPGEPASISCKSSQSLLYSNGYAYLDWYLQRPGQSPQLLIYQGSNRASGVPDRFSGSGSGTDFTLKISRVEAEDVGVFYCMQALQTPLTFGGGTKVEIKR : 0.78
Antibody A6 (antibody, human IgG1, kappa, L234A L235A, V domains shown) VH: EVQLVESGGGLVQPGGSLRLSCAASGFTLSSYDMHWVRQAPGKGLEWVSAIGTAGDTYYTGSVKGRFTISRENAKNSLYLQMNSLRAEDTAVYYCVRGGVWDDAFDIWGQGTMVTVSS VL: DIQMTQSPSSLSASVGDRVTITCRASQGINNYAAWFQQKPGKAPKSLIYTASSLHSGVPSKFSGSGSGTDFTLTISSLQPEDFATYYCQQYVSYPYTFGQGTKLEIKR : 18.1

Kd measured on Antibody E10 (antibody, human IgG1, kappa, L234A L235A, V domains shown) VH: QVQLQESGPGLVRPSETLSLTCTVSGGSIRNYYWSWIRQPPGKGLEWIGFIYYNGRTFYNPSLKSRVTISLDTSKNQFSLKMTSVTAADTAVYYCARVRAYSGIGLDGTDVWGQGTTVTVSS VL: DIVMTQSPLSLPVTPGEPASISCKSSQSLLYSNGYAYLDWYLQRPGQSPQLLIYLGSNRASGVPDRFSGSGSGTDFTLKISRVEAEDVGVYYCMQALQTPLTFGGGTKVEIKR = 1.2
